Test system: prokaryotes in water surrounding coral nubbins
Assay: Prokaryotic (bacterial) abundance and enrichment in seawater surrounding coral nubbins (microcosm incubation)
Conditions: incubation 12 h; seawater surrounding Acropora sp. nubbins
VALUE TYPE: Bacterial abundance (total bacterial number, TBN)

INSERT INTO assay_data (compound, measurement) VALUES
  ('CCCCC(CC)COC(=O)c1ccc(Nc2nc(Nc3ccc(C(=O)OCC(CC)CCCC)cc3)nc(Nc3ccc(C(=O)OCC(CC)CCCC)cc3)n2)cc1 (stereo not shown) [System D24, ethylhexyl triazone]', '7.41E+05'),
  ('CC(C)(C)CC(C)(C)c1cc(Cc2cc(C(C)(C)CC(C)(C)C)cc(-n3nc4ccccc4n3)c2O)c(O)c(-n2nc3ccccc3n2)c1 [System D22]', '9.18E+05'),
  ('CCCCCCCCCCCCCCCC(=O)OC/C=C(C)/C=C/C=C(C)/C=C/C1=C(C)CCCC1(C)C [System D19, retinyl palmitate]', '1.54E+06'),
  ('CO[C@@]12[C@H](COC(N)=O)C3=C(C(=O)C(C)=C(N)C3=O)N1C[C@@H]1N[C@@H]12 [MITO, Mitomycin C, reference compound]', '1.53E+06'),
  ('CC(=O)Oc1c(C)c(C)c2c(c1C)CCC(C)(CCC[C@H](C)CCC[C@H](C)CCCC(C)C)O2 (mixture of isomers) [System D17, DL-tocopherol-acetate]', '1.42E+06'),
  ('CC1=C(/C=C/C(C)=C/C=C/C(C)=C/CO)C(C)(C)CCC1 [System D20, Retinol]', '1.71E+06'),
  ('CCCCCCOC(=O)c1ccccc1C(=O)c1ccc(N(CC)CC)cc1O [System D25]', '2.63E+06');

====

Test system: symbiotic zooxanthellae released from coral nubbins
Assay: Zooxanthellae counts: zooxanthellae released in water surrounding coral nubbins
Assay type: in vivo, Acropora sp.
Conditions: end of incubation (72 h)
Consider the cut-off 7000 cells ml^−1. If the recorded Pale zooxanthellae released is strictly smaller, the label is Criterion met; if not, the label is Criterion not met.

INSERT INTO measurements (compound, label_class) VALUES
  ('CO[C@@]12[C@H](COC(N)=O)C3=C(C(=O)C(C)=C(N)C3=O)N1C[C@@H]1N[C@@H]12 [MITO, Mitomycin C, reference compound]', 'Criterion met'),
  ('CCCCCCCCCCCCCCCC(=O)OC/C=C(C)/C=C/C=C(C)/C=C/C1=C(C)CCCC1(C)C [System D19, retinyl palmitate]', 'Criterion met'),
  ('Cc1c(C)c2c(c(C)c1O)CC[C@@](C)(CCC[C@H](C)CCC[C@H](C)CCCC(C)C)O2', 'Criterion not met'),
  ('CCCCC(CC)COC(=O)c1ccc(Nc2nc(Nc3ccc(C(=O)OCC(CC)CCCC)cc3)nc(Nc3ccc(C(=O)OCC(CC)CCCC)cc3)n2)cc1 (centres unmarked)', 'Criterion not met'),
  ('CC(=O)Oc1c(C)c(C)c2c(c1C)CCC(C)(CCC[C@H](C)CCC[C@H](C)CCCC(C)C)O2 (mixture of isomers) [System D17, DL-tocopherol-acetate]', 'Criterion not met'),
  ('CCCCCCOC(=O)c1ccccc1C(=O)c1ccc(N(CC)CC)cc1O', 'Criterion not met');

====

Test system: viruses in water surrounding coral nubbins
Experiment: Viral abundance and viral enrichment in seawater surrounding coral nubbins (microcosm incubation)
Conditions: incubation 0 (start); seawater surrounding Acropora sp. nubbins; compound concentration per Table 2
# Total viral abundances (TVN) listing for each entry below
VALUE TYPE: Total viral abundances (TVN) (viruses ml^−1)

INSERT INTO results (compound, assay_target, value_type, measurement) VALUES
  ('CCCCCCOC(=O)c1ccccc1C(=O)c1ccc(N(CC)CC)cc1O', 'viruses in water surrounding coral nubbins', 'Total viral abundances (TVN)', '3.67E+05'),
  ('CC1=C(/C=C/C(C)=C/C=C/C(C)=C/CO)C(C)(C)CCC1', 'viruses in water surrounding coral nubbins', 'Total viral abundances (TVN)', '2.47E+05'),
  ('CO[C@@]12[C@H](COC(N)=O)C3=C(C(=O)C(C)=C(N)C3=O)N1C[C@@H]1N[C@@H]12 [MITO, Mitomycin C, reference compound]', 'viruses in water surrounding coral nubbins', 'Total viral abundances (TVN)', '1.11E+05'),
  ('CCCCCCCCCCCCCCCC(=O)OC/C=C(C)/C=C/C=C(C)/C=C/C1=C(C)CCCC1(C)C [System D19, retinyl palmitate]', 'viruses in water surrounding coral nubbins', 'Total viral abundances (TVN)', '1.03E+05'),
  ('CCCCC(CC)COC(=O)c1ccc(Nc2nc(Nc3ccc(C(=O)OCC(CC)CCCC)cc3)nc(Nc3ccc(C(=O)OCC(CC)CCCC)cc3)n2)cc1 (centres unmarked)', 'viruses in water surrounding coral nubbins', 'Total viral abundances (TVN)', '9.58E+04'),
  ('CC(=O)Oc1c(C)c(C)c2c(c1C)CCC(C)(CCC[C@H](C)CCC[C@H](C)CCCC(C)C)O2 (mixture of isomers) [System D17, DL-tocopherol-acetate]', 'viruses in water surrounding coral nubbins', 'Total viral abundances (TVN)', '3.49E+05'),
  ('CC(C)(C)CC(C)(C)c1cc(Cc2cc(C(C)(C)CC(C)(C)C)cc(-n3nc4ccccc4n3)c2O)c(O)c(-n2nc3ccccc3n2)c1', 'viruses in water surrounding coral nubbins', 'Total viral abundances (TVN)', '5.06E+05'),
  ('Cc1c(C)c2c(c(C)c1O)CC[C@@](C)(CCC[C@H](C)CCC[C@H](C)CCCC(C)C)O2', 'viruses in water surrounding coral nubbins', 'Total viral abundances (TVN)', '3.24E+05');
